Target: hMC-4R (Homo sapiens, UniProt P32245)
Construct: expressed in transfected cells; host or cells: HEK293
Sequence (P32245 whole entry): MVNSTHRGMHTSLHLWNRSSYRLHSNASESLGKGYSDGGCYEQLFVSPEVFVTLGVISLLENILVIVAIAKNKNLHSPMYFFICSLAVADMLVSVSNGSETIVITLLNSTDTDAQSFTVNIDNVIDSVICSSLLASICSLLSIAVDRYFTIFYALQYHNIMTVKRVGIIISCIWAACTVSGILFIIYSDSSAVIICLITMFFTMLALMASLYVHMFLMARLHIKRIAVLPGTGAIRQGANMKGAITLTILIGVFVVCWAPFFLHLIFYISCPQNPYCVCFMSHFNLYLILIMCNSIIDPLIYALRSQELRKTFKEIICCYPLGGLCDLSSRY
Assay: Membrane binding assay (fluorescence polarization, competition with fluorescence labeled NDP-alpha-MSH)
Settings: HEK293 cell membrane preparations expressing human melanocortin receptors; 5 h at room temperature
Provide the reported IC50 of each item.
Reply numerically in µM, unit not repeated.

Form: molecule = NC(Cc1ccc(Cl)cc1)C(=O)N1CCC(c2cc(F)c(F)cc2OCCN2CCCCC2)CC1 (stereo not drawn) [Example 112] ; IC50 = 0.26

Form: molecule = NC(Cc1ccc(Cl)cc1Cl)C(=O)N1CCC(c2ccccc2OCCN2CCCC2)CC1 (stereo not drawn) [Example 1] ; IC50 = 0.13

Form: molecule = NC(Cc1ccc(Cl)cc1)C(=O)N1CCC(c2cc(F)c(F)cc2OCCN2CCCC2)CC1 (stereo not drawn) [Example 111] ; IC50 = 0.31

Form: molecule = NC(Cc1ccc(Cl)cc1)C(=O)N1CCC(c2ccccc2CCCN2CCCC2)CC1 (stereo not drawn) [Example 113] ; IC50 = 0.79

Form: molecule = NC(Cc1ccc(Cl)cc1)C(=O)N1CCC(c2cc(Cl)ccc2OCCN2CCCC2)CC1 (stereo not drawn) [Example 106] ; IC50 = 0.15

Form: molecule = NC(Cc1ccc(Cl)cc1)C(=O)N1CCC(c2ccccc2OCCN2CCCC2)CC1 (stereo not drawn) [Example 101] ; IC50 = 0.47

Form: molecule = NC(Cc1ccc(Cl)cc1)C(=O)N1CCC(c2ccc(Cl)cc2OCCCN2CCCCC2)CC1 (stereo not drawn) [Example 110] ; IC50 = 0.19

Form: molecule = NC(Cc1ccc(Cl)cc1Cl)C(=O)N1CCC(c2ccc(F)cc2OCCN2CCCC2)CC1 (stereo not drawn) [Example 2] ; IC50 = 0.064

Form: molecule = NC(Cc1ccc(Cl)cc1Cl)C(=O)N1CCC(c2cc(F)c(F)cc2OCCN2CCCC2)CC1 (stereo not drawn) [Example 7] ; IC50 = 0.057

Form: molecule = NC(Cc1ccc(Cl)cc1Cl)C(=O)N1CCC(c2ccc(Cl)cc2OCCN2CCCC2)CC1 (stereo not drawn) [Example 3] ; IC50 = 0.028

Form: molecule = NC(Cc1ccc(Cl)cc1)C(=O)N1CCC(c2ccc(F)cc2CCCN2CCCC2)CC1 (stereo not drawn) [Example 114] ; IC50 = 0.29

Form: molecule = NC(Cc1ccc(Cl)cc1)C(=O)N1CCC(c2cc(F)ccc2OCCN2CCCC2)CC1 (stereo not drawn) [Example 105] ; IC50 = 0.26
